Target: T1, HLA-A2/E7 (11-19) tetramer (human; HPV 16)
T1 construct: also called E7(11-19) peptide-MHC tetramer; E7 (11-19)-loaded tetramer
Assay: tetramer flow cytometry; transfected 1:1 CD4+ and CD4+/CD8+ Jurkat-derived cells;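 further: cells transiently transfected with TCR plasmids, stained 48 h later with HLA-A*02:01 peptide-MHC tetramer plus anti-CD8 antibody, read by flow cytometry to assess CD8-independent tetramer binding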
Measurement name: % cells in E7 tet+/CD8- quadrant

These solved cases illustrate the format of a correct answer.
Binder: TCR 48 (codon optimized, cysteine modified version) (TCR, V domains shown) V domain 1: QKEVEQDPGPLSVPEGAIVSLNCTYSNSAFQYFMWYRQYSRKGPELLMYTYSSGNKEDGRFTAQVDKSSKYISLFIRDSQPSDSATYLCAMRIQGAQKLVFGQGTRLTINP V domain 2: EPEVTQTPSHQVTQMGQEVILRCVPISNHLYFYWYRQILGQKVEFLVSFYNNEISEKSEIFDDQFSVERPDGSNFTLKIRSTKLEDSAMYFCASTGRVSYEQYFGPGTRLTVTE
Result: 1.29%

Binder: TCR 42 (codon optimized, cysteine modified version) (TCR, V domains shown) V domain 1: GQQVMQIPQYQHVQEGEDFTTYCNSSTTLSNIQWYKQRPGGHPVFLIQLVKSGEVKKQKRLTFQFGEAKKNSSLHITATQTTDVGTYFCAGPDNFNKFYFGSGTKLNVKP V domain 2: EPEVTQTPSHQVTQMGQEVILRCVPISNHLYFYWYRQILGQKVEFLVSFYNNEISEKSEIFDDQFSVERPDGSNFTLKIRSTKLEDSAMYFCAKTSRSSYEQYFGPGTRLTVTE
Result: 1.65%

We next turn to a different binder, shown below.
get_value(item= TCR 32 (codon optimized, cysteine modified version) (TCR, V domains shown) V domain 1: TQLLEQSPQFLSIQEGENLTVYCNSSSVFSSLQWYRQEPGEGPVLLVTVVTGGEVKKLKRLTFQFGDARKDSSLHITAAQPGDTGLYLCAGGSNYKLTFGKGTLLTVNP V domain 2: DSGVTQTPKHLITATGQRVTLRCSPRSGDLSVYWYQQSLDQGLQFLIQYYNGEERAKGNILERFSAQQFPDLHSELNLSSLELGDSALYFCASSVGGDHSDEQFFGPGTRLTVLE , readout=% cells in E7 tet+/CD8- quadrant) returns 33.5%
